- subject-of-test: human ether-à-go-go-related gene (hERG) potassium channel (human)
- Sequence (Q12809 whole entry, looked up): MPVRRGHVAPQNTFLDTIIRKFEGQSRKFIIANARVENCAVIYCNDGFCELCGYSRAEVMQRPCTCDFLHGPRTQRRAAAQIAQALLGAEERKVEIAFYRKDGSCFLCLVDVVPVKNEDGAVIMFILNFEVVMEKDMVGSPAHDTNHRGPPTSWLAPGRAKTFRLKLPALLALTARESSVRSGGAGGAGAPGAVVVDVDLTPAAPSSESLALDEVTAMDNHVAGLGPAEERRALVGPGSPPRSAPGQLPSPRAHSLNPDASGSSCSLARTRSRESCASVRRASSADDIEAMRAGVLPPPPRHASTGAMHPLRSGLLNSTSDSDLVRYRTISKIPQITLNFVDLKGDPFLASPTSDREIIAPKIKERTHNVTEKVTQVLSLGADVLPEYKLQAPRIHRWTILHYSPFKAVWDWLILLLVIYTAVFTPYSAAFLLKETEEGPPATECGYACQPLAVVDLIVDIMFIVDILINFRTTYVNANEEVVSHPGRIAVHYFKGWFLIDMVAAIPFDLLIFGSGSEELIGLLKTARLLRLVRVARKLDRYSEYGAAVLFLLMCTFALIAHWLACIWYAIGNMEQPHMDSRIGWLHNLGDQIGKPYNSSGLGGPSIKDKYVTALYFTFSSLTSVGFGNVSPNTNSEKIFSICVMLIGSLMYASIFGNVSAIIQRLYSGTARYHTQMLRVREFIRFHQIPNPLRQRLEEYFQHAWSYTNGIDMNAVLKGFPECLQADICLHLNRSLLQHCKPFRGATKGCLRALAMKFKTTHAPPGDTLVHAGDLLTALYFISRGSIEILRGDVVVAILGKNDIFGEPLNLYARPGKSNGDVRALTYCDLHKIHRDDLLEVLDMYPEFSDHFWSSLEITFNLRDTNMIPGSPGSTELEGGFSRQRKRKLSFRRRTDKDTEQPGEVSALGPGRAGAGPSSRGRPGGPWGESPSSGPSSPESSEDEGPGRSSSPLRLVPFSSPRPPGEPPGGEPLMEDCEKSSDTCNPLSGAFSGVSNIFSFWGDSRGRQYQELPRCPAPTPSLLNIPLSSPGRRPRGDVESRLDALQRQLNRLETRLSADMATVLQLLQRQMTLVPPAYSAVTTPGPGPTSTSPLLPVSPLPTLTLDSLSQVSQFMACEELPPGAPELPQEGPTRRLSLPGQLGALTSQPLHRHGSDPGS
- measurement-protocol: primary screen, population patch clamp on CHO cells stably expressing hERG; higher = less effect of the substance;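 further: peak tail current of the secondary pulse compared with the same well before compound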
The whole screen tested about 310,000 compounds, of which about 14,000 (4.5%) showed an effect of 50% or more. Effects have a minus sign here. Shown is part of a subset that was picked to be rich in strong results.
Hi there, I'd appreciate the recorded hERG current change (%, negative = inhibition) at 10uM for every entry that follows.
Give the number; % is assumed, so skip it.

Looking up Nc1nc(Cl)cc(-c2ccccc2)n1 , I see its hERG current change (%, negative = inhibition) at 10uM listed as -4.54

Quick note, hERG current change (%, negative = inhibition) at 10uM for NNC(=O)c1ccc2[nH]c3c(c2c1)CCCC3 landed at 5.31

Entry Cc1cc2c(cc1C)NC(=O)CC(C(F)(F)C(F)(F)C(F)(F)F)=N2 — recorded hERG current change (%, negative = inhibition) at 10uM = 9.6

Please fill in: hERG current change (%, negative = inhibition) at 10uM reported for CC(C)C[C@H](NC(=O)[C@H](Cc1ccccc1)n1c(=O)[nH]c2ccccc2c1=O)C(=O)N1CCC[C@H]1C(=O)O = 6.16

Noted for O=c1[nH]c(=O)n(-c2ccccc2F)c(O)c1C=NCCC1=CCCCC1 : its hERG current change (%, negative = inhibition) at 10uM reads 25.6

Per the records, this compound ( COc1ccc(-c2noc(CSc3nc(N)cc(=O)[nH]3)n2)cc1 ) has hERG current change (%, negative = inhibition) at 10uM equal to 0.145

response.value for C=C1CCN(c2ccc(C(=O)NCCC)cc2[N+](=O)[O-])CC1 (field: hERG current change (%, negative = inhibition) at 10uM) = -48.3

Form field hERG current change (%, negative = inhibition) at 10uM, entry CN(C(=O)/C=C/c1ccccc1)C1CCCCC1 : 1.32

Memo: Cc1ccc(C)c(N(C)S(=O)(=O)c2cccc3nsnc23)c1 , reported hERG current change (%, negative = inhibition) at 10uM: -18.4

Entry under test: O=C(CN1C(=O)C2CC=CCC2C1=O)Nc1ccc(OC(F)(F)F)cc1 (centres unmarked) . Its hERG current change (%, negative = inhibition) at 10uM was -14.2

Query N#C/C(=C\c1c[nH]c2ccccc12)c1nnc2n1CCCCC2 yields hERG current change (%, negative = inhibition) at 10uM of -29.5

What the record says about CN(C(=S)NC(=O)/C=C/c1ccc(F)cc1)C1CCCCC1 : hERG current change (%, negative = inhibition) at 10uM is 4.54

Query NC1=C([N+](=O)[O-])C(c2ccc3c(c2)OCO3)C2=C(CCCC2=O)O1 (centres unmarked) yields hERG current change (%, negative = inhibition) at 10uM of 10.8

Per the record, CN(C1CCCC1)C1CCN(C(=O)CNC(=O)/C=C/c2ccc(F)cc2)CC1 has hERG current change (%, negative = inhibition) at 10uM of -62.6

# hERG current change (%, negative = inhibition) at 10uM (compound: CCc1cc(C(=O)N2CCCC(C(=O)c3cccc(OC(C)C)c3)C2)n(C)n1 (centres unmarked) ) is -6.49

Record summary for CCN(CC)CCn1c2c(c(SCC(=O)Nc3ccc(C(C)C)cc3)nc1=O)CCC2 : reported hERG current change (%, negative = inhibition) at 10uM = -56.9

// sample Cl.O=C(CN1CCCCCC1)N1c2ccccc2Sc2ccc(C(F)(F)F)cc21 , its hERG current change (%, negative = inhibition) at 10uM was -1.87

The reported hERG current change (%, negative = inhibition) at 10uM of the compound N#C/C(=C\c1cn(-c2ccccc2)nc1-c1cccnc1)c1nnc2n1CCCCC2 was -63.2

Entry O=C(Nc1ccc2nsnc2c1)N1CCCCC1 , hERG current change (%, negative = inhibition) at 10uM reported as 22.2

// hERG current change (%, negative = inhibition) at 10uM lookup, compound = O=C1OC(CO)CN1Cc1ccccc1 (centres unmarked) , result: 12.3

Form field hERG current change (%, negative = inhibition) at 10uM, entry COc1ccccc1OC(C)C(=O)N1CC(=O)Nc2ccccc21 (centres unmarked) : 15.8

COc1cc(CCCN2C(=S)NC[C@@H]2CC2CCCCC2)cc(OC)c1OC has a reported hERG current change (%, negative = inhibition) at 10uM of -1.89

Looking up O=C(/N=C1\NC(=O)C(F)(C(F)(F)F)S1)NC1CCCCC1 (centres unmarked) , I see its hERG current change (%, negative = inhibition) at 10uM listed as 13

Cc1ccc(S(=O)(=O)N2CCN(C(=O)COC(=O)c3c(C)noc3C)CC2)c(C)c1 yielded hERG current change (%, negative = inhibition) at 10uM of -18.8

Looking up Cc1ccc(OC(C)C(=O)N2CC(=O)Nc3ccccc32)cc1 (centres unmarked) , I found its hERG current change (%, negative = inhibition) at 10uM recorded as -67.7

Summary for this compound, Cc1c(C#N)c(NC(=O)CCl)n(Cc2ccc(F)cc2)c1C : hERG current change (%, negative = inhibition) at 10uM is 12.8

For reference, reported hERG current change (%, negative = inhibition) at 10uM for CN(C)C(=O)COC(=O)c1ccccc1OCC(=O)Nc1ccc(SC(F)F)cc1 stands at -51.8

The recorded hERG current change (%, negative = inhibition) at 10uM for COc1cc(C(=O)OCC(=O)Nc2ccc(SC(F)F)cc2)cc(OC)c1OC is -55.7

Reported hERG current change (%, negative = inhibition) at 10uM of CN(C1CCCC1)C1CCN(C(=O)CNC(=O)/C=C/c2cccc(C(F)(F)F)c2)CC1 : -62.6

Entry CN(C)CCN1C(=O)C(O)=C(C(=O)c2ccco2)C1c1ccccc1F (centres unmarked) ; hERG current change (%, negative = inhibition) at 10uM = 11.9

Looking up O=C(O)c1cc(C(F)(F)F)nc2ccccc12 , I see its hERG current change (%, negative = inhibition) at 10uM listed as 3.92

Lab book: hERG current change (%, negative = inhibition) at 10uM of O=C(/C=C/c1cn(-c2ccccc2)nc1-c1cccnc1)N1CCCCC1 noted as -49.7

// sample Nc1cc(Cl)cc(C(=O)O)c1Cl , its hERG current change (%, negative = inhibition) at 10uM was 15.9

hERG current change (%, negative = inhibition) at 10uM in this record for O=C(COC(=O)c1ccccc1O)Nc1ccc(OC(F)F)cc1 : 2.74

The compound Cc1ccc(OC(C)C(=O)N2CC(=O)Nc3ccccc32)c(C)c1 (centres unmarked) showed hERG current change (%, negative = inhibition) at 10uM equal to 2.56

Per the record, COc1ccccc1NC(=O)COC(=O)c1ccccc1OCC(=O)Nc1ccc(SC(F)F)cc1 has hERG current change (%, negative = inhibition) at 10uM of 1.67

Looking up COc1ccccc1C(=O)OCC(=O)Nc1ccc(OC(F)F)cc1 , I found its hERG current change (%, negative = inhibition) at 10uM recorded as -32.2

Data point: CCOc1cc(C(=O)OCC(=O)Nc2ccc(SC(F)F)cc2)cc(OCC)c1OCC ; hERG current change (%, negative = inhibition) at 10uM = 4.57

Form: compound = S=C(NCc1ccc(Cl)c(Cl)c1)Nc1ccc2c(c1)OCO2 ; hERG current change (%, negative = inhibition) at 10uM = -6.19

Memo: CNC(=O)/C=C/c1cccc(C(F)(F)F)c1 , reported hERG current change (%, negative = inhibition) at 10uM: 4.99

Please fill in: hERG current change (%, negative = inhibition) at 10uM reported for COc1ccccc1/C=C/C(=O)NCC(=O)N1CCC(N(C)C2CCCC2)CC1 = -35
